- Test system: ACHN
- experiment summary: NCI tumour cell line growth inhibition, 48 h
Calls of active or inactive are those of the source. No stated cut-off is given here; in the data, active = GI50 up to about 1.1 µM and inactive = higher.
Reported GI50 values for a set of molecules

Field: example entries. Status: answers known.
N#CC(C#N)=CNCCN1CCN(C=C(C#N)C#N)CC1    > 100 µM (inactive)
CN(C)CCNC(=O)c1ccc(NCCCN(C)CCCNc2ccc3c(=O)n(CCN(C)C)c(=O)n4c5ccccc5c(=O)c2c34)c2c(O)c3ccccc3nc12    < 0.01 µM (active)
COn1cc(C=O)c2ccccc21    32.7 µM (inactive)
O=CN1CCN(C(=O)c2cc(Cl)cc(Cl)c2)C1=S    16.9 µM (inactive)
c1ccc2c(-c3ccnc(-c4c[nH]c5ccccc45)n3)c[nH]c2c1    3.13 µM (inactive)
CN(C)/C=N/S(=O)(=O)c1nn2c(C=O)c(-c3ccc(-c4ccc([N+](=O)[O-])cc4)o3)nc2s1    1.97 µM (inactive)

Q. Endpoint output: GI50 of COC(=O)C(Cc1nc2ccccc2nc1O)C(=O)C(=O)Nc1ccc(OC)cc1[N+](=O)[O-] (centres undefined) . Value?
A. > 100 µM (inactive)

Q. Endpoint output: GI50 of Cc1c(C)c(S(=O)(=O)N(CCCCCON)OCCCN)c(C)c2c1OC(C)(C)CC2 . Value?
A. 16.4 µM (inactive)

Q. Endpoint output: GI50 of CC12CCC(=O)C=C1CCC1C2CCC2(C)C(C(=O)Cn3cnc4c(=S)nc[nH]c43)CCC12 (centres undefined) . Value?
A. 40 µM (inactive)

FYI, the data here is from ChEMBL document CHEMBL1201862.
